B1: glmS ribozyme (parent)
chain: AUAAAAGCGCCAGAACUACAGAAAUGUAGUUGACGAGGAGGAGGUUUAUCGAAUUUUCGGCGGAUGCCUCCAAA

Variants of: B1
experiment_notes: self-cleavage kobs at 10000 uM GlcN6P; higher = faster cleavage; RNA array
stated_conditions: with glucosamine-6-phosphate
Variants at the floor of the assay were thinned out.
The entries below are paired with their reported self-cleavage kobs at 10000 uM GlcN6P.
measured_property: self-cleavage kobs at 10000 uM GlcN6P

> print(dat)
                                  seq.string                      measured.property        result
 1  AUAAAAGCGGCAGACCUACAGAAAUGUAGUUGACGAGGAGGAGGUUUAUCGAAUUUUCGGCGGAUGCCUCCAAA  self-cleavage kobs at 10000 uM GlcN6P   < 1e-05 s⁻¹
 2  AUAAAAGCACCAGAACUACAGAAAUGUAGUUGACGAGGAGGAGGUUUAUCGAAUUUUCGGCGAAUGCCUCCAAA  self-cleavage kobs at 10000 uM GlcN6P   < 1e-05 s⁻¹
 3  AUAAAAGCGCCAGAACUACAGAAAUGUAGUUGACGAGGAGCAGCUUUAUCGAAUUUUCGGCGGAUGCCUCCAAA  self-cleavage kobs at 10000 uM GlcN6P   < 1e-05 s⁻¹
 4  AUAAAAGCGCCAGAACUACAGAAAUGUAGCUCACGAGGAGGAGUUUUAUUGAAUUUUCGGCGGAUGCCUCCAAA  self-cleavage kobs at 10000 uM GlcN6P   < 1e-05 s⁻¹
 5  AUAAAAGCGCCAGAACUACAGAAAUGUAGUUGACGAGGAGGAGGUUUAUCGAAUUUUCGUCGGAUGCGUCCAAA  self-cleavage kobs at 10000 uM GlcN6P   < 1e-05 s⁻¹
 6  AUAAAAGCGCCUCAACUACAGAAAUGUAGUUGACGAGGAGGAGGUUUAUCGUAUUUUCGACGGCUGCCUCCAAA  self-cleavage kobs at 10000 uM GlcN6P   < 1e-05 s⁻¹
 7  AUAAAAGCGCCAGAACUACAGAAAUGUAGUUAACGAGGAAGAGGUUUAUCGAAUUUUCGGCGGAUGCCGCCAAA  self-cleavage kobs at 10000 uM GlcN6P   < 1e-05 s⁻¹
 8  AUAAAAGCGCCAGAGCUACAGAAAUGUAGUUGACGAGGAGGAGGUUUAUCGCAUUUUCGGCGGAUGCCUCCAAA  self-cleavage kobs at 10000 uM GlcN6P  2.66e-05 s⁻¹
 9  AUAAAAUCGCCAGAACUACAGAAAUGUAGUUGCCGAGGAGGAGGUUUAUCGAAUUUUCGGCGGAUGCCUCCAAA  self-cleavage kobs at 10000 uM GlcN6P   < 1e-05 s⁻¹
10  AUAAAAGCGCCAGAACUACAGAAAUGUAGUUGAUGAGGAGGAGGUUUAUCGAAUUUUCUGCGGAUGCCUCCAAA  self-cleavage kobs at 10000 uM GlcN6P   < 1e-05 s⁻¹
11  AUAAAAGCGCCGGAAUUACAGAAAUGUAAUUGACGAGGAAGUGGGUUAUCGAAUUUUCGGCGGAUGCCUCCAAA  self-cleavage kobs at 10000 uM GlcN6P  8.82e-05 s⁻¹
12  AUAAAAGUGCCAGAACUACAGAAAUGUAGUUGACGAGGAGGAGGUUUAUCGAAUUUUCGGCAGAUGCCUCCAAA  self-cleavage kobs at 10000 uM GlcN6P  7.26e-05 s⁻¹
13  AUAAAAGCGCCAGAACUACAGAAAUGUAGUUGACGAGGAGCAGGGUUAUCGAAUUUUCGGCGGAUGCCUCCAAA  self-cleavage kobs at 10000 uM GlcN6P  9.46e-05 s⁻¹
14  AUAAAAGCGCCAGAACUACAGAAAUGUAGUUGAAGAGGAGGUGGUUUAUCGAAUUUUCGGCGGAUGCCUCCAAA  self-cleavage kobs at 10000 uM GlcN6P   < 1e-05 s⁻¹
15  AUAAAAGCGCCAGAACUACAGAAAUGUAGGUGCCGAGGAGGAGGUUUAUCGAAUUUUCGGCGGAUGCCUCCAAA  self-cleavage kobs at 10000 uM GlcN6P   3.4e-05 s⁻¹
16  AUAAAAGCGCCAGAACUACAGAAAUGUAGUUGACGAGGAGGGAGUUUAUCGAAUUUUCGGCGGAUGCCUCCAAA  self-cleavage kobs at 10000 uM GlcN6P  0.000143 s⁻¹
